kon values, listed per item
Target: T1, human PVRIG-his (AcroBiosystems, Cat NO. PVG-H52H4) (human, UniProt Q6DKI7 41-171, limits assumed)
T1 construct: also called human PVRIG protein
T1 sequence (looked up): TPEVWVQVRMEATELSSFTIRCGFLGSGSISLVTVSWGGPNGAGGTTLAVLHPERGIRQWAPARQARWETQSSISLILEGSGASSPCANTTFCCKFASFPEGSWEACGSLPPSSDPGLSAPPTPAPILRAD
Assay: SPR (BIAcore), antibody captured on Protein A chip, human PVRIG-His analyte
Readout Label: kon (M⁻¹ s⁻¹)

[
  {
    "Binder": "PVRIG-A118 (Fc fusion, heavy chain antibody VHH-hinge-CH2-CH3, human IgG1 constant part; not shown: human IgG1 hinge-CH2-CH3) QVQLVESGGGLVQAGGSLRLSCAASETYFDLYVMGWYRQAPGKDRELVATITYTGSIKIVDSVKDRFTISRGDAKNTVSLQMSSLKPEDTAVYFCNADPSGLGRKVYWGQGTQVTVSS",
    "Readout Label": "kon",
    "Unit Annotation": "M⁻¹ s⁻¹",
    "Experimental Result": "2.38e+06"
  },
  {
    "Binder": "SRF813-hIgG1 (antibody, V domains shown, positive control; human IgG1 format) VH: QVQLVQSGAEVKKPGSSVKVSCKASGGTFSSAAISWVRQAPGQGLEWMGNIIPIVGIANYAQKFQGRVTITADESTSTAYMELSSLRSEDTAVYYCARDTGRGYTRHFWFDPWGQGTLVTVSS VL: DIQMTQSPSSLSASVGDRVTITCRASQSISSYLNWYQQKPGKAPKLLIYAASSLQSGVPSRFSGSGSGTDFTLTISSLQPEDFATYYCQQSDILYTFGGGTKVEIK",
    "Readout Label": "kon",
    "Unit Annotation": "M⁻¹ s⁻¹",
    "Experimental Result": "1.14e+06"
  },
  {
    "Binder": "PVRIG-A15 (Fc fusion, heavy chain antibody VHH-hinge-CH2-CH3, human IgG1 constant part; not shown: human IgG1 hinge-CH2-CH3) QVQLVESGGGLVQAGGSLRLSCVASGRTFSANTMAWFRQAPGKEREFVAYTRWTDDNTDYASYADFVKGRFTAFRDNTRNTMYLQMNRLRPEDTAVYYCAAATTRGTYYSAGDYNSWGQGTQVTVSS",
    "Readout Label": "kon",
    "Unit Annotation": "M⁻¹ s⁻¹",
    "Experimental Result": 61200
  },
  {
    "Binder": "PVRIG-A35 (Fc fusion, heavy chain antibody VHH-hinge-CH2-CH3, human IgG1 constant part; not shown: human IgG1 hinge-CH2-CH3) EVQVVESGGGLVQSGGSLRLSCAASGRTRSMYVMGWFRQAPGKEREFVGRIKWSGDTTYTSYADFVKGRFTLYGNQARNTVYLQMNSLKPEDTAVYYCNGRSRFNVINAWGTGTLVTVAS",
    "Readout Label": "kon",
    "Unit Annotation": "M⁻¹ s⁻¹",
    "Experimental Result": 8900
  }
]
